- Protocol description: Ability to form a glassy, amorphous form following heat-melting and cooling (XRD)
- Type: physicochemical
Readout label: GLASSY AND AMORPHOPUS FORM

Here's what some known entries look like.
{"columns": ["Molecule", "Recorded measurement"],
 "data": [
  ["CC(=O)N1CCN(c2ccc(OCC3COC(Cn4ccnc4)(c4ccc(Cl)cc4Cl)O3)cc2)CC1 (stereo not shown)", "YES"],
  ["CC1=C(CC(=O)O)c2cc(F)ccc2/C1=C\\c1ccc([S+](C)[O-])cc1 (stereo not shown)", "YES"],
  ["Clc1ccccc1C(c1ccccc1)(c1ccccc1)n1ccnc1", "YES"],
  ["CCCCC(=O)O[C@]1(C(=O)CO)[C@@H](C)C[C@H]2[C@@H]3CCC4=CC(=O)C=C[C@]4(C)[C@@]3(F)[C@@H](O)C[C@@]21C [Betamethazone valerate]", "YES"],
  ["O=C(O)Cc1ccccc1Nc1c(Cl)cccc1Cl", "YES"]
]}

Entry under review: `COc1ccc2c(c1)c(CC(=O)O)c(C)n2C(=O)c1ccc(Cl)cc1` . Reported GLASSY AND AMORPHOPUS FORM?
YES

Can you check `OC(Cn1cncn1)(Cn1cncn1)c1ccc(F)cc1F` next?
YES

* * *

Here, each record is paired with measured GLASS TRANSITION TEMP (TG ° C.) data.
- Protocol description: Glass transition temperature (Tg) of meltable drug in amorphous form by Differential Scanning calorimetry (DSC)
- Assay type: physicochemical
- Description: The meltable active pharmaceutical ingredient forms a stable amorphous form following melting and cooling; in this context, the term “stable” as applied to the amorphous form means that the thermodynamic tendency of the active pharmaceutical ingredient to crystallize over one year is resisted. […] Tg is typically calculated by using a half-height technique in the transition region FIG. 6.
Kindly answer with a numeric value in °C, unit omitted.

{"columns": ["Compound", "Result units", "GLASS TRANSITION TEMP (TG ° C.)"],
 "data": [
  ["O=C(O)Cc1ccccc1Nc1c(Cl)cccc1Cl", "°C", 53]
]}

Now let's try a different one.
Entry under review: `Clc1ccccc1C(c1ccccc1)(c1ccccc1)n1ccnc1` . Reported GLASS TRANSITION TEMP (TG ° C.)?
32

* * *

- Protocol description: Glass transition temperature (Tg) of meltable drug in amorphous form by Differential Scanning calorimetry (DSC)
- Format: physicochemical
Please enter t where GLASS TRANSITION TEMP (TG ° C.) is greater than or equal to 50 °C, and f where it is lower.

{"columns": ["Compound", "Assigned class"],
 "data": [
  ["OC(Cn1cncn1)(Cn1cncn1)c1ccc(F)cc1F", "f"],
  ["CC(=O)N1CCN(c2ccc(OCC3COC(Cn4ccnc4)(c4ccc(Cl)cc4Cl)O3)cc2)CC1 (centres unmarked)", "f"],
  ["CC1=C(CC(=O)O)c2cc(F)ccc2/C1=C\\c1ccc([S+](C)[O-])cc1 (centres unmarked)", "t"],
  ["COc1ccc2c(c1)c(CC(=O)O)c(C)n2C(=O)c1ccc(Cl)cc1", "f"]
]}

Turning now to a further compound:
hey, is GLASS TRANSITION TEMP (TG ° C.) for this one >= 50 °C? CCCCC(=O)O[C@]1(C(=O)CO)[C@@H](C)C[C@H]2[C@@H]3CCC4=CC(=O)C=C[C@]4(C)[C@@]3(F)[C@@H](O)C[C@@]21C [Betamethazone valerate]
t
